Exercise: for every item that follows, state its recorded AUC(0-inf).
measurement_description: Single-dose pharmacokinetics of EE and LN
Type: in vivo, human
run_parameters: female, human, plasma, oral, AUC∞, adjusted geometric mean, Reference (Microgynon 30 alone)
# number only, unit ng·h/mL dropped from output

I'd like to know its AUC(0-inf). The compound in question is C#C[C@]1(O)CC[C@H]2[C@@H]3CCC4=CC(=O)CC[C@@H]4[C@H]3CC[C@@]21CC [Levonorgestrel, levonorgestrel]
44.6

I'd like to know its AUC(0-inf). The compound in question is C#C[C@]1(O)CC[C@H]2[C@@H]3CCc4cc(O)ccc4[C@H]3CC[C@@]21C [Ethinylestradiol, ethinylestradiol]
0.716
